Measured protein stability index, listed per entry for reference.
test-description: protein stability index of a GFP-peptide fusion (GPS, HEK-293T) (PSI 1-6); higher = more stable;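 also: 24-mer peptide tiles fused after GFP, lentivirally expressed, FACS-sorted into six equal bins by GFP/DsRed ratio, decoded by Illumina sequencing, PSI is the read-weighted mean bin number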
experimental-conditions: treatment: MLN4924 1 uM, 8 h; c terminus: a fixed tail appended
Just the number.

Sample records with protein stability index:
[
  {
    "biosequence": "SISELKHALSGHAKVKPFDPKITC [TPH1]",
    "protein stability index": 2.93
  },
  {
    "biosequence": "SYLDKVRALEEANTELEVKIRDWY [KRT17]",
    "protein stability index": 3.07
  },
  {
    "biosequence": "VLGPLVALIICYNWLHRRLAGQFL [MOG]",
    "protein stability index": 2.92
  },
  {
    "biosequence": "DYLYTKQLSPNLDLDPLELIALAN [RHOBTB1]",
    "protein stability index": 2.3
  },
  {
    "biosequence": "DQIEDMFEQGKWDVFSENLLADVK [STX11]",
    "protein stability index": 3.76
  },
  {
    "biosequence": "SYHDGYGEALGRDHSEHLSGSSYR [RBMY1A1]",
    "protein stability index": 4.12
  },
  {
    "biosequence": "ELPKPEVISQLEQGTELWVAERGT [ZNF8]",
    "protein stability index": 4.82
  },
  {
    "biosequence": "EECIPEHMVRESKIMEAESQKATR [FAN1]",
    "protein stability index": 4.72
  },
  {
    "biosequence": "KSLSELVDDKFGTGTKKVTRILDG [PSD2]",
    "protein stability index": 4.53
  },
  {
    "biosequence": "MLNMWKVRELVDKATNVVMNYSEI [CLINT1]",
    "protein stability index": 2.23
  }
]

In plain terms, CRYPYEYEGGHIKGAVNLHMEEEV [CDC25A] has a documented protein stability index of 3.7

In plain terms, SLNLSTEFISSTKRPYAKELETVD [SERPINB5] has a documented protein stability index of 3.82

In plain terms, ESVEGVVRILLEHYYKENDPSVRL [INTS4] has a documented protein stability index of 2.46

In plain terms, ERAKELYSSGEFSSGRKWGDDAPK [INTS4] has a documented protein stability index of 4.66

In plain terms, LLSDVRFVLGKGRGAAAAGGPQRI [BTBD1] has a documented protein stability index of 3.04

In plain terms, ELVPHPETAPTTVDRTHALMKKIG [CRYL1] has a documented protein stability index of 4.48

In plain terms, EREEITTKKRKLGKNPDVDTSFLP [FAM50A] has a documented protein stability index of 4.79

In plain terms, GGTPARSGTTLISVIVLDINDNAP [PCDHGC5] has a documented protein stability index of 2.64

In plain terms, LALIDYLTQKRSQLVKKLNDSDHQ [VPS39] has a documented protein stability index of 2.77
